biological target: Neurogenic locus notch homolog protein 2 (Homo sapiens) (UniProt Q04721); experiment: small molecules binding Notch2 protein – biochemical, small-molecule microarray, 635 nm fluorescence, stem cell growth factors, primary screen (AID 1073); conditions: higher = more signal
Sequence (Q04721 whole entry, looked up): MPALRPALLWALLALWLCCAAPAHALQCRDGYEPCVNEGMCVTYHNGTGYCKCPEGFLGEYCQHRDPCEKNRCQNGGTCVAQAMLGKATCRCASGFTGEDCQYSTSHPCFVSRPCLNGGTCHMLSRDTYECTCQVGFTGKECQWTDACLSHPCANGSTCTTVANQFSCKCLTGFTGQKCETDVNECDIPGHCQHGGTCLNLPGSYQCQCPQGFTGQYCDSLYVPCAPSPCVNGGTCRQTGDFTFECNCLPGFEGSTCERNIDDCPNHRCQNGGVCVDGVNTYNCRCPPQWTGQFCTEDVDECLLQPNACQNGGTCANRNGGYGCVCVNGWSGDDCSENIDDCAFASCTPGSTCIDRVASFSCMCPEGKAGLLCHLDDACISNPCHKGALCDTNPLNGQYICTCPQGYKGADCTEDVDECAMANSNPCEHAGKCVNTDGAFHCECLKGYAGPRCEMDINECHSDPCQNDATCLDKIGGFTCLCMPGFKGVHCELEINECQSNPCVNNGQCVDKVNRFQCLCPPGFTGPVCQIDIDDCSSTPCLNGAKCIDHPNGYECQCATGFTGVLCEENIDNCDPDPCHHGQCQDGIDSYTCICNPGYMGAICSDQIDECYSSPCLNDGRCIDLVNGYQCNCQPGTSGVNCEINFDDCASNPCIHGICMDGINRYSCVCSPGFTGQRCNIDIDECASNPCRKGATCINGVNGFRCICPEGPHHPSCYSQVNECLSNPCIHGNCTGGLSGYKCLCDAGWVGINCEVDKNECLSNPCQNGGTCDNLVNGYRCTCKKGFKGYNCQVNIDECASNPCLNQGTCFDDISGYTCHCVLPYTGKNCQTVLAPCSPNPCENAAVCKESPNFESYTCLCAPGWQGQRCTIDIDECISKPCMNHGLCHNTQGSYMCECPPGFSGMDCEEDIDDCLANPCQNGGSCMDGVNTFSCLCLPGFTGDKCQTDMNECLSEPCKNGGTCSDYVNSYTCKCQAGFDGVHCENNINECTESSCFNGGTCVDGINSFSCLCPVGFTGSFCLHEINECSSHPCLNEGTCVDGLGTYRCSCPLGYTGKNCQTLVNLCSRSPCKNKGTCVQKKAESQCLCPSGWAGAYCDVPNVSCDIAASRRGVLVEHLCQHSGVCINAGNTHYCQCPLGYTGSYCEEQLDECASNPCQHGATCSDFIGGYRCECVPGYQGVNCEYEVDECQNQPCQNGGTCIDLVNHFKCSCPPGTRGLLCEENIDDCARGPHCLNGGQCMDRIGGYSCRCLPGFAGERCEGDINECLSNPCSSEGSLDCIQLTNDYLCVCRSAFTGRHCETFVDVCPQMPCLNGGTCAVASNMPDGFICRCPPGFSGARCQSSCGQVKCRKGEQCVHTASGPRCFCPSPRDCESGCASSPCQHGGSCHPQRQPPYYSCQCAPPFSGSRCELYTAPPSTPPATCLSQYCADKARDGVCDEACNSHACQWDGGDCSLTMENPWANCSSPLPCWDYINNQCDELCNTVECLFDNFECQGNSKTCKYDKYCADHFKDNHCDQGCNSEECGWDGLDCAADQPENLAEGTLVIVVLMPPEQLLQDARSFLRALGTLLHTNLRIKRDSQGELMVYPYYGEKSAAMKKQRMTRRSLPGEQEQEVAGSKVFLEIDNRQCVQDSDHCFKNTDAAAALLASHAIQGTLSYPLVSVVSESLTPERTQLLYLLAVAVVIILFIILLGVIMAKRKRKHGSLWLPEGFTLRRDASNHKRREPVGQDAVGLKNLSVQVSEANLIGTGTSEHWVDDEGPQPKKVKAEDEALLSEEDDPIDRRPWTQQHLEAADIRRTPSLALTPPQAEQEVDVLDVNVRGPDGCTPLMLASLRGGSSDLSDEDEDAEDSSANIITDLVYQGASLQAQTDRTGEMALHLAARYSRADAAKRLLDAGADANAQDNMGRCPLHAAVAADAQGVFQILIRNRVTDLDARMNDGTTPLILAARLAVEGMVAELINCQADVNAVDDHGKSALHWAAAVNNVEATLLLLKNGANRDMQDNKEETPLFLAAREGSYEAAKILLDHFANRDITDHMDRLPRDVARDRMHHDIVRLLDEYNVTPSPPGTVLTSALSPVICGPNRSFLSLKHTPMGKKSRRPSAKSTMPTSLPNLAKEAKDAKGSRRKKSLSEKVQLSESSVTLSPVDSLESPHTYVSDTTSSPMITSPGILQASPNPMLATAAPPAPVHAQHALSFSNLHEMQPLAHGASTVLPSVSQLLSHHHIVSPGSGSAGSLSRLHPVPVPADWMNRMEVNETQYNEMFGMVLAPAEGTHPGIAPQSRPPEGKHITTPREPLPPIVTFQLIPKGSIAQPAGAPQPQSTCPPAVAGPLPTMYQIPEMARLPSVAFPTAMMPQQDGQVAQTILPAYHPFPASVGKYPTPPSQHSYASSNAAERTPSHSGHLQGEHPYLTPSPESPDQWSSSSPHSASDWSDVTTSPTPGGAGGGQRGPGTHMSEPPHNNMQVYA
property label: composite z-score
Give only the figure.

Task item: What composite z-score value was documented for this molecule, CCOC(=O)C1=C[C@@H](C(C)C)N(S(=O)(=O)c2ccc(C)cc2)[C@H]1c1ccc(C(F)(F)F)cc1 ?
Reply: 1.67

Task item: Data request, read-out composite z-score, for CC1CC/C=C\[C@H]2OC34C=CCN(C(C)C)C(=O)[C@H]3N(CCO)C(=O)[C@@H]4C2C(=O)O1 (some centres not stated)
Reply: -1.19

Task item: May I ask what composite z-score has been recorded for C=CCC(OC(C)=O)[C@@H]1[C@@H](N(Cc2cc3ccccc3o2)C(=O)Cc2ccc(F)cc2)c2cc(OCCCO)ccc2N1C(=O)Cc1ccc2ccccc2c1 (some centres not stated) ?
Reply: -0.665

Task item: // query composite z-score value for entry [N-]=[N+]=Nc1ccccc1C[C@@]1(C(=O)NCCN2CCOCC2)N=C(c2ccc(OCCCO)cc2)O[C@@H]1c1ccccc1N=[N+]=[N-]
Reply: 1.04

Task item: For CC(C)C(O)C1C=CC2C(=O)N(c3ccccc3)C(=O)C2N1Nc1ccccc1 (configuration not stated) , what is its reported composite z-score?
Reply: 1.49

Task item: Which composite z-score reading was recorded for the molecule CC(CO)N1C(=O)[C@]2(C)C3C(=O)OCCC/C=C\[C@H]3OC23C=CCN(c2ccc(Cl)cc2)C(=O)[C@@H]13 (some centres not stated) ?
Reply: -0.27

Task item: What value of composite z-score has been recorded for this entry: [N-]=[N+]=Nc1ccccc1[C@@H]1OC(c2ccc(OCCCO)cc2)=N[C@]1(Cc1ccccc1)C(=O)N1CCCCC1
Reply: 1.39

Origin of measurements: PubChem BioAssay
